FYI, the data here is from PubChem BioAssay (NCI).

System: A498 renal
Test Description: NCI-60 one-dose screen, 48 h (100 = growth as untreated, 0 = no growth, -100 = all killed)
Stated Conditions: 10 µM
The panel holds about 83,000 compounds, 20% with a hit somewhere; the sample as a whole holds those more often.
# if measured growth < 10%: yes (1)  # else: no (0)

COC(=O)[C@@H](C)C[C@H](Cc1ccccc1)NC(=O)c1cccc([C@@H](C[C@H](C(C)C)N(C)C(=O)[C@@H](NC(=O)[C@H]2CCCCN2C)C(C)C)OC(C)=O)n1: yes (1)
Clc1cccc(NCOOC2(OOCNc3cccc(Cl)c3)CCCCCC2)c1: no (0)
C=CC12CCN(CC1)C(C(O)c1ccnc3ccc(OC)cc13)C2 (configuration not stated): no (0)
CCCCN1CCCC[C@@H]1C(=O)N[C@H](C(=O)N(C)[C@H](CCc1nc(C(=O)N[C@@H](Cc2ccccc2)C[C@H](C)C(=O)OC)cs1)C(C)C)[C@@H](C)CC: no (0)
C/C=C(\C)C(=O)O[C@@H]1C(O)[C@H]2OC(COC(=O)CCC(=O)CCCCCC[C@H](CCCCC)O[C@@H]3OC(C)[C@H](OC(C)=O)C(O)[C@H]3O2)[C@H]1OC(=O)/C=C/c1ccccc1 (some centres not stated): no (0)
COc1cc([C@@H]2c3cc4c(cc3[C@H](OC(C)=O)[C@H]3COC(=O)[C@@H]23)OCO4)cc(OC)c1OC: yes (1)
N#C[Se]Cc1cc(-c2ccccc2)n(-c2ccc(S(N)(=O)=O)cc2)n1: yes (1)

====

Test system: ACHN renal
Test Description: NCI-60 one-dose screen, 48 h
Stated Conditions: 10 µM unless noted
This is part of a sample that, as a whole, favours compounds with a hit. Of some 83,000 tested, about 20% had one in any assay. Active and inactive are the calls of the source. Rule for the calls: active = growth percent below 10; inactive = the rest.
Outcomes: true (active), false (inactive)

C/C1=C/C(=O)O[C@@H]2C[C@@H](CC[C@H](C)/C=C\C=C\CC1)O[C@@](O)([C@@H]1CSC(=O)N1CO)C2: false
C=C(C)[C@@]12OC3(/C=C/C=C/CCCCC)O[C@@H]1[C@@H]1[C@@H]4O[C@]4(CO)[C@@H](O)[C@]4(O)C(=O)C(C)=C[C@H]4[C@@]1(O3)[C@H](C)[C@H]2OC(=O)c1ccccc1: false
CC1(C)C(C(=O)c2cn(CCCCF)c3ccccc23)C1(C)C: false
COc1ccc(Nc2ccnc3cc(Cl)ccc23)cc1CN(CCCl)CCCl: true
O=C(CCCCCNC1=CC(=O)c2ccccc2C1=O)NCCC[Te]c1ccccc1: true
Cc1sc2c(c1C)C(c1ccc(Cl)cc1)=N[C@@H](CC(=O)OC(C)(C)C)c1nnc(C)n1-2: false
ClCCN(CCCl)c1nc(Cl)c(C2CC(c3ccccc3)=NN2c2cc(Cl)cc(Cl)c2)s1 (stereo not given): false
O=P1(NCCCl)OCCCN1CCCl (stereo not given): false
COC(=O)[C@@H](C)C[C@H](Cc1ccc(F)cc1)NC(=O)c1csc([C@@H](C[C@H](C(C)C)N(C)C(=O)[C@@H](NC(=O)[C@H]2CCCCN2C)C2CC2)OC(C)=O)n1: false
C[C@@H]1CCC2[C@@H](C)[C@H](OC(=O)CCC(=O)NCCNC(=O)Cc3cc(=O)oc4cc(N(C)C)ccc34)O[C@@H]3O[C@]4(C)CC[C@@H]1C23OO4 (stereo not given in full): false
